Target: UniProt:P51531
Sequence (P51531 whole entry): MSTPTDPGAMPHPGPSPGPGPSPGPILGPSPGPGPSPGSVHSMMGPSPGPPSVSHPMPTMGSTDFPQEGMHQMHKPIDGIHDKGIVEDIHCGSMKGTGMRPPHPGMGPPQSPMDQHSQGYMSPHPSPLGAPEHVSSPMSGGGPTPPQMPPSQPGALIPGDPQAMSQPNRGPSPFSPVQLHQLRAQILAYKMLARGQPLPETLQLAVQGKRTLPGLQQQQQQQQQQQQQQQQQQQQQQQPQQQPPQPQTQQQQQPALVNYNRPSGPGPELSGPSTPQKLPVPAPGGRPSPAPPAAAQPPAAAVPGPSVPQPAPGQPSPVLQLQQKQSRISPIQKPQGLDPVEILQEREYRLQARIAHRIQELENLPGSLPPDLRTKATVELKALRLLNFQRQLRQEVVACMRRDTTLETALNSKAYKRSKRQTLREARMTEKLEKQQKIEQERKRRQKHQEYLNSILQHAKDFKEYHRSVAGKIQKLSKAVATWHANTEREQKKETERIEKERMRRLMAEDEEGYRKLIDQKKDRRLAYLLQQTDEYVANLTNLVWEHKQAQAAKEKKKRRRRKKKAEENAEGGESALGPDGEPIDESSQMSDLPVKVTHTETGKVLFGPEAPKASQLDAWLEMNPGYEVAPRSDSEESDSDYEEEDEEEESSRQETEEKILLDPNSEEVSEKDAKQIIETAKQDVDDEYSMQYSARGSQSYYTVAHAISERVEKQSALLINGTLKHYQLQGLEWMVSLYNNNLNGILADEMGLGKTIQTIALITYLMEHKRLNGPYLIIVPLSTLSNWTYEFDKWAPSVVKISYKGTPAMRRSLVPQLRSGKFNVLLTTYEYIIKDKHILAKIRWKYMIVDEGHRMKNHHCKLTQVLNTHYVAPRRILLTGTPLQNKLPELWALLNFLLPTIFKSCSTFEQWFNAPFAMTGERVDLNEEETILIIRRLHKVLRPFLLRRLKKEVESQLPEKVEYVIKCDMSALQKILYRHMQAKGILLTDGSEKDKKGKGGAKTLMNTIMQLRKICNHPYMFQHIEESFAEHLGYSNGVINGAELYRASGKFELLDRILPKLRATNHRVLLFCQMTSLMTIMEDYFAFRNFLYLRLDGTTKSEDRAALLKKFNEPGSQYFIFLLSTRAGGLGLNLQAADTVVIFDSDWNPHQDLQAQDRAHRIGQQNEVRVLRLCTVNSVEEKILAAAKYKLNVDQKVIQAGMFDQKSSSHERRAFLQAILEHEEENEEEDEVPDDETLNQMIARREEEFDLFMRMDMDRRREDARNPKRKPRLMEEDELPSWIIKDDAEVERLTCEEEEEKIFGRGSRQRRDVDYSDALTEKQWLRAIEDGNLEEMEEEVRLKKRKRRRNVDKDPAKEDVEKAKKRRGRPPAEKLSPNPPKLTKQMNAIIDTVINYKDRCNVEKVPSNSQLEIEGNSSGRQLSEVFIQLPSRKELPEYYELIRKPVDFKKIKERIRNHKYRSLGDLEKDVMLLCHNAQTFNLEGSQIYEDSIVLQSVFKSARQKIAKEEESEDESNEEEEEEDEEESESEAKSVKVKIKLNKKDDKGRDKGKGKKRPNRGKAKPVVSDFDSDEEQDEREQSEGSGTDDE
Assay: ATPase catalytic activity assay of BRM (ADP-Glo)
Format: biochemical
Conditions: read-out: BRM IC50 (μM)*
Measured IC50 accompanies every entry in the list below.

compound: COc1cccc(-c2csc(NC(=O)CNC(=O)c3ccc4c(c3)[C@@](C)(F)CCOC4)n2)c1
IC50: 0.1 to 1 µM
//
compound: Cc1cc(-c2cccc(-c3csc(NC(=O)CNC(=O)c4ccc5c(c4)[C@@](C)(CO)CC5)n3)n2)ncn1
IC50: < 0.1 µM
//
compound: Cn1ncc2ccc(-c3csc(NC(=O)CNC(=O)c4ccc5c(c4)[C@](C)(CO)CC5)n3)cc21
IC50: 0.1 to 1 µM

Enquiry: Field request: IC50 | item: CC(C)(C)c1cccc(C(=O)NCC(=O)Nc2nc(-c3cccc(N4CCC4)c3)cs2)c1
Return: 0.1 to 1 µM

Enquiry: Field request: IC50 | item: Cc1cnc(O)c(-c2cccc(-c3csc(NC(=O)CNC(=O)c4ccc5c(c4)[C@@](C)(CO)CC5)n3)n2)c1
Return: 0.1 to 1 µM

Enquiry: Field request: IC50 | item: C[C@@H]1CN(c2cccc(-c3csc(NC(=O)CNC(=O)c4ccc5c(c4)[C@](C)(CO)CCO5)n3)c2)C[C@H](C)O1
Return: 0.1 to 1 µM

Enquiry: Field request: IC50 | item: C[C@@H]1CN(c2cccc(-c3csc(NC(=O)CNC(=O)c4ccc5c(c4)[C@H](C)COC5)n3)n2)C[C@H](C)O1
Return: < 0.1 µM

---

Measured Emax accompanies every entry in the list below.
Target: BRG-1 (Homo sapiens, UniProt P51532)
Sequence (P51532 whole entry): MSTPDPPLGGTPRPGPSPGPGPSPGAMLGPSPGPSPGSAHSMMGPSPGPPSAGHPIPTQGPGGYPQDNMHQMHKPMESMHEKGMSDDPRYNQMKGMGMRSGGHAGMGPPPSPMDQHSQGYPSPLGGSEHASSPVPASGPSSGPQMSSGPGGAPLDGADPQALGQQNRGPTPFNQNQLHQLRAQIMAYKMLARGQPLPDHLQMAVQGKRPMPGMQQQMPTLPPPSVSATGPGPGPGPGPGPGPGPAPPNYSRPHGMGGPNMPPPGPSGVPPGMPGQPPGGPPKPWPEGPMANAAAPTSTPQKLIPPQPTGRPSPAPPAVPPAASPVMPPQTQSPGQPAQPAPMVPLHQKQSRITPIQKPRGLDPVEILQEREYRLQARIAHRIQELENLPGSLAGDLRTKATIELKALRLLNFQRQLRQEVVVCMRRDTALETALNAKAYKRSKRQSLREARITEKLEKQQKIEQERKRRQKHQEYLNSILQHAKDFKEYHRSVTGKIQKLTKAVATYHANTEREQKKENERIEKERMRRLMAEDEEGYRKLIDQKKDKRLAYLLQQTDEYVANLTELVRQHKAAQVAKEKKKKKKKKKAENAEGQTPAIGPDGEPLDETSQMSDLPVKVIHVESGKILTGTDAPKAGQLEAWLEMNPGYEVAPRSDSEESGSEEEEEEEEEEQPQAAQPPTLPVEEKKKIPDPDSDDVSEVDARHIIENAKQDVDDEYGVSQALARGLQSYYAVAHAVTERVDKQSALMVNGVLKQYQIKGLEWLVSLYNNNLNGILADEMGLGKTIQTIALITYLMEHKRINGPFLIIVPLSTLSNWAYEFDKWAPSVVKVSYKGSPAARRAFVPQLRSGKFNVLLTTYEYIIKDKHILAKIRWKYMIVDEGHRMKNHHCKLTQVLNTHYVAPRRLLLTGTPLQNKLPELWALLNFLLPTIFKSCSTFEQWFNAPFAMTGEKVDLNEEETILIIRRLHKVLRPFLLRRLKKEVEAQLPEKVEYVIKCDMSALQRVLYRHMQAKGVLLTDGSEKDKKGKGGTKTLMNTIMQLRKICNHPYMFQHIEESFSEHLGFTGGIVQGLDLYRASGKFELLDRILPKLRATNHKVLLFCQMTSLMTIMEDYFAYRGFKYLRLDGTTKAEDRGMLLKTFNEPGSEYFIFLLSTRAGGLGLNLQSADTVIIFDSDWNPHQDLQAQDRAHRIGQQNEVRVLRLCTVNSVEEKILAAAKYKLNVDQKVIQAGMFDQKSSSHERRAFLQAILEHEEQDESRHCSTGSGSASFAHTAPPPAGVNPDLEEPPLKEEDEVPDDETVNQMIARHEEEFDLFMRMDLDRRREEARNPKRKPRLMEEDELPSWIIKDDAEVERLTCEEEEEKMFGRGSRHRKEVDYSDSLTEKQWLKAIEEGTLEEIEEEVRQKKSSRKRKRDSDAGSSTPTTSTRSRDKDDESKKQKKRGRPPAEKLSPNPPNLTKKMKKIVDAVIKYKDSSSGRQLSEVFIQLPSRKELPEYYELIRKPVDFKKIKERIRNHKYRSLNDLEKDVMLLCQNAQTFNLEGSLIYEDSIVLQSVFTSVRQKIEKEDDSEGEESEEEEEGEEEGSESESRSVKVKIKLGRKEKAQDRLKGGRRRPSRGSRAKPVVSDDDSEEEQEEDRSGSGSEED
Test: ATPase catalytic activity assay of BRG-1 (ADP-Glo)
Format: biochemical
Details: ATPase catalytic activity, ADP-Glo; read-out: BRG1 Max % Inhibition

Guide cases for Emax, answers given:
compound: C[C@@H]1CN(c2cccc(-c3csc(NC(=O)CNC(=O)c4ccc5c(c4)[C@](C)(F)COC5)n3)n2)C[C@H](C)O1
testedTarget: BRG-1 (Homo sapiens, UniProt P51532)
endpointValue: > 95%

compound: C[C@@H]1CN(c2cccc(-c3csc(NC(=O)CNC(=O)c4cccc5c4OCC[C@@]5(C)CO)n3)c2)C[C@H](C)O1
testedTarget: BRG-1 (Homo sapiens, UniProt P51532)
endpointValue: > 50%

compound: C[C@@H]1CN(c2cccc(-c3csc(NC(=O)CNC(=O)c4ccc5c(c4)[C@@](C)(CO)CO5)n3)n2)C[C@H](C)O1 (single isomer, unassigned)
testedTarget: BRG-1 (Homo sapiens, UniProt P51532)
endpointValue: > 70%

Enquiry: Field request: Emax | item: C[C@@H]1CN(c2cccc(-c3csc(NC(=O)CNC(=O)c4cccc([C@@]5(O)CCOC5)c4)n3)n2)C[C@H](C)O1
Return: > 60%

Enquiry: Field request: Emax | item: C[C@@]1(C#N)COCc2ccc(C(=O)NCC(=O)Nc3nc(-c4cccc(N5CCC56COC6)c4)cs3)cc21
Return: > 95%

Enquiry: Field request: Emax | item: CCOC(=O)N1CCC[C@H](c2csc(NC(=O)CNC(=O)c3ccc4c(c3)C(C)(F)COC4)n2)C1 (stereo in doubt)
Return: > 95%

Enquiry: Field request: Emax | item: CC(C)(CN)c1cccc(C(=O)NCC(=O)Nc2nc(-c3cccc(-c4ccnc(CO)c4)c3)cs2)c1
Return: > 80%

Enquiry: Field request: Emax | item: C[C@@H]1CN(c2cccc(-c3csc(NC(=O)CNC(=O)c4ccc5c(c4)C(F)(C(F)F)COC5)n3)c2)C[C@H](C)O1 (stereo in doubt) [Compound 308]
Return: > 95%

Enquiry: Field request: Emax | item: COc1cccc(-c2csc(NC(=O)CNC(=O)c3ccc4c(c3)[C@](C)(F)CCOC4)n2)c1
Return: > 90%

Enquiry: Field request: Emax | item: Cn1ncc(-c2cccc(-c3csc(NC(=O)CNC(=O)c4cccc(C(C)(C)CO)c4)n3)n2)n1
Return: > 60%
